target: ZFP SBS#1352 (synthetic); assay: EMSA; details: tags: MBP fusion
Sequence (chain, as listed by the source): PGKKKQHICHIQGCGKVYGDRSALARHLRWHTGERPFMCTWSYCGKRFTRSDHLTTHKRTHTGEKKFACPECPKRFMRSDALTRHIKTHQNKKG
ASSAY METRIC: Kd (nM)
Report the value in nM with no unit label.

Field request: Kd | item: GTGTGGGTC (dsDNA) DNA 1: GTGTGGGTC DNA 2: GACCCACAC
0.023
